- Tested on: Plasmodium falciparum
- Experimental details: MMV: Modified 3H-Hyoxanthine uptake assay; RPMI 1640 (Invitrogen cat#23400-013) without Sodium Bicarbonate (NaHCO3).
- Type: functional, organism-based
- Measurement parameters: 3D7
Reported property: IC50

Consider the reported IC50 for these molecules:
                                   molecule        target_of_assay  reported_property    result
0  Cc1ccc(N2C3c4ccccc4N(S(=O)(=O)c4ccc(C)cc4)C2c2ccccc2N3S(=O)(=O)c2ccc(C)cc2)cc1  Plasmodium falciparum               IC50  > 0.5 µM
1            Cc1ccc(Nc2nc(-c3ccccn3)cs2)cc1  Plasmodium falciparum               IC50    > 1 µM
2  COc1ccc(C2=C(c3ccc(OC)cc3)C3(c4ccccc4)C(=O)C2(c2ccccc2)C2C(=O)N(c4ccc(C)cc4)C(=O)C23)cc1 (centres undefined)  Plasmodium falciparum               IC50    > 1 µM
3  CCOC(=O)c1cnc2c(C)cc(C)cc2c1Nc1ccc(OC)c(OC)c1  Plasmodium falciparum               IC50    > 2 µM
4  COc1ccc(-n2ccnc2SCC(=O)Nc2cc(C)ccc2C)c(OC)c1  Plasmodium falciparum               IC50    > 1 µM
5  Cc1ccc(-c2cc3c(SCC(=O)Nc4cc(C(F)(F)F)ccc4Cl)nccn3n2)cc1  Plasmodium falciparum               IC50  > 0.5 µM
6  COc1cc(OC)c(N(C)C(=O)c2cc3c(s2)-c2ccccc2S(=O)(=O)C3)cc1Cl  Plasmodium falciparum               IC50  > 0.5 µM
7  COc1ccc(C(C)=O)cc1N1C(=O)C2C(C1=O)C1(c3ccccc3)C(=O)C2(c2ccccc2)C(c2ccc(C)cc2)=C1c1ccc(C)cc1 (centres undefined)  Plasmodium falciparum               IC50    > 1 µM

Proceeding to the next molecule to report its IC50.
The reported IC50 of the molecule Cc1cc(C=C2SC(=Nc3ccccc3)N(C3CCCC3)C2=O)c(C)n1-c1ccc(Cl)cc1 was > 1 µM

Provenance of the data: ChEMBL document CHEMBL3301550
